Tested on: HDQ-P1
PROCEDURE_DETAILS: drug sensitivity score (DSS), CellTiter-Blue viability (DSS (AUC-based score)); higher = stronger viability inhibition; extreme values may be limits of the assay
RUN_PARAMETERS: incubation time: 72 h
# drug sensitivity score per entry
Enter a number only.

Example compounds with recorded drug sensitivity score:
Cc1ccc(C(=O)N(CCCN)[C@@H](c2oc3cc(Cl)ccc3c(=O)c2Cc2ccccc2)C(C)C)cc1
10.1
CCC1(c2ccc(N)cc2)CCC(=O)NC1=O (stereo not drawn) [Aminoglutethimide]
0

For the next question, use this compound.
# query: drug sensitivity score | item O=C1CCC(N2C(=O)c3ccccc3C2=O)C(=O)N1 (stereo not drawn) [Thalidomide] | system: HDQ-P1 0

====

Tested on: Hs578T
PROCEDURE_DETAILS: normalised response (% of control), CellTox Green; higher = less cell death (100 = DMSO, 0 = benzethonium chloride kill control)
RUN_PARAMETERS: incubation time: 72 h
# normalised response per entry
Be sure to follow the number with its unit.

Example molecules with recorded normalised response:
COc1cc2ncnc(Nc3ccc(F)c(Cl)c3)c2cc1NC(=O)/C=C/CN1CCCCC1 [Dacomitinib] (1000 nM)
115%
Clc1ccc(Nc2nnc(Cc3ccncc3)c3ccccc23)cc1 [Vatalanib] (10000 nM)
78.7%

# query: normalised response | item CO[C@H]1/C=C\C=C(/C)C(=O)NC2=CC(=O)C(NCCN(C)C)=C(C[C@@H](C)C[C@H](OC)[C@H](O)[C@@H](C)/C=C(\C)[C@@H]1OC(N)=O)C2=O [Alvespimycin] (1000 nM) | system: Hs578T -33.1%

# query: normalised response | item NC(=O)Nc1cc(-c2cccc(F)c2)sc1C(=O)N[C@H]1CCCNC1 [AZD7762] (100 nM) | system: Hs578T 64.1%

# query: normalised response | item CCC1(c2ccc(N)cc2)CCC(=O)NC1=O (stereo not given) [Aminoglutethimide] (10000 nM) | system: Hs578T 127%

# query: normalised response | item CC1(C)NC(=O)N(c2ccc([N+](=O)[O-])c(C(F)(F)F)c2)C1=O [Nilutamide] (10000 nM) | system: Hs578T 102%

# query: normalised response | item CN[C@@H]1C[C@H]2O[C@@](C)([C@@H]1OC)n1c3ccccc3c3c4c(c5c6ccccc6n2c5c31)C(=O)N[C@H]4O [UCN-01] (10000 nM) | system: Hs578T -27.6%

# query: normalised response | item NC(=O)Nc1cc(-c2cccc(F)c2)sc1C(=O)N[C@H]1CCCNC1 [AZD7762] (1000 nM) | system: Hs578T 40.7%

# query: normalised response | item CC(=O)Nc1ccc(C(=O)Nc2ccccc2N)cc1 [Tacedinaline] (1000 nM) | system: Hs578T 99.3%

# query: normalised response | item C[C@]12CC[C@@H]3c4ccc(O)cc4C[C@@H](CCCCCCCCC[S+]([O-])CCCC(F)(F)C(F)(F)F)[C@H]3[C@@H]1CC[C@@H]2O (stereo not given in full) [Fulvestrant] (100 nM) | system: Hs578T 103%

====

System: MDA-MB-468
PROCEDURE_DETAILS: normalised viability (% of control), CellTiter-Blue; higher = more viable cells (100 = DMSO, 0 = benzethonium chloride kill control)
RUN_PARAMETERS: incubation time: 72 h
PROPERTY_LABEL: normalised viability (%)
Numbers only here, please. The scale is %.

Example compounds with recorded normalised viability:
NCC(=O)CCC(=O)O [Aminolevulinic acid] (1 nM)
103
Cn1c(Nc2ccc(C(F)(F)F)cc2)nc2cc(Oc3ccnc(-c4ncc(C(F)(F)F)[nH]4)c3)ccc21 [RAF265] (0.1 nM)
104
Cc1ccc(C(=O)Nc2ccc(CN3CCN(C)CC3)c(C(F)(F)F)c2)cc1C#Cc1cnc2cccnn12 [Ponatinib] (0.1 nM)
104
CC1(C)NC(=O)N(c2ccc([N+](=O)[O-])c(C(F)(F)F)c2)C1=O [Nilutamide] (1 nM)
108
C#Cc1cccc(Nc2ncnc3cc(OCCOC)c(OCCOC)cc23)c1 [Erlotinib] (1 nM)
107
CC(=O)Nc1ccc(C(=O)Nc2ccccc2N)cc1 [CI-994] (0.1 nM)
98.9

Which measured normalised viability value corresponds to Cc1ccc(-n2nc(C(C)(C)C)cc2NC(=O)Nc2ccc(OCCN3CCOCC3)c3ccccc23)cc1 [Doramapimod] (1 nM) ? 105

Which measured normalised viability value corresponds to Clc1ccc(Nc2nnc(Cc3ccncc3)c3ccccc23)cc1 [Vatalanib] (1 nM) ? 98.8

Which measured normalised viability value corresponds to CN(C)/N=N/c1[nH]cnc1C(N)=O [Dacarbazine] (1 nM) ? 103

Which measured normalised viability value corresponds to C=C(c1ccc(C(=O)O)cc1)c1cc2c(cc1C)C(C)(C)CCC2(C)C [Bexarotene] (1 nM) ? 105
